Tested on: LOX IMVI melanoma
Test: NCI-60 one-dose screen, 48 h
Details: 10 µM unless noted
The panel holds about 83,000 compounds, 20% with a hit somewhere; the sample as a whole holds those more often. Activity calls are given as the source filed them. How the source made its calls: active means growth percent below 10; inactive means the rest.
Log the outcome using a class from active, inactive

Reference set, count: 5
compound=COc1ccc(/C=C/C(=O)c2ccc(Nc3nc(Nc4ccc(F)cc4)nc(Nc4ccc(Cl)cc4)n3)cc2)cc1 group=inactive
compound=CN(C)c1ccc(/C=C2/C=C(c3ccccc3)OC2=O)cc1 group=inactive
compound=c1ccc(CCc2ccccc2-c2cc(-c3ccccc3)on2)cc1 group=inactive
compound=CCN(CC)c1ccc(N2C(=O)/C(=C/c3cccs3)SC2=S)cc1 group=inactive
compound=Cc1cc(C(=O)Nc2cc(Nc3ncccc3-c3ncnc4nc[nH]c34)ccc2F)cc(C(F)(F)F)c1 group=active

Field: outcome | Entry: `CN(CCC#N)c1ccc(/C=C2\NC(=O)NC2=O)cc1`
inactive

Field: outcome | Entry: `Cc1ccc2nc(Cl)c(Cn3nnnc3SCc3ccccc3)cc2c1`
inactive

Field: outcome | Entry: `CN1C(=O)/C(=C/c2ccc(C(=O)Nc3ncc(Cc4ccc(F)cc4)s3)cc2)SC1=S`
inactive

Field: outcome | Entry: CN(Cc1cnc2nc(N)nc(N)c2n1)c1c(Cl)cc(C(=O)NC(CCC(=O)O)C(=O)O)cc1Cl (configuration not stated)
inactive

Field: outcome | Entry: `CCOC(=O)c1ccc2c(c1)c1c(C)c3ccncc3c(C)c1n2C`
active

Field: outcome | Entry: `C=C1C(=O)O[C@H]2[C@H]1CC/C(COC(=O)/C=C\C(=O)NCc1ccc(Cn3c(=O)sn(-c4ccccc4)c3=O)cc1)=C\CC[C@@]1(C)O[C@@H]21`
inactive

Field: outcome | Entry: `O=C1Nc2ccc(F)cc2/C1=N/c1nnc(Sc2ccccc2)s1`
inactive

====

Tested on: MCF7 breast
Test: NCI-60 one-dose screen, 48 h (100 = growth as untreated, 0 = no growth, -100 = all killed)
Conditions: 10 µM unless noted
About 83,000 compounds went through this panel and 20% of them were active in at least one assay; those are over-represented in the sample as a whole.
// criterion not met strictly below 10% in growth; criterion met otherwise

Reference set, count: 4
compoundstructurestring=CCN1CCN(CC(=O)Nc2nc3ccc(NCc4ccc(Br)cc4)cc3s2)CC1 group="criterion met"
compoundstructurestring=COc1cc(-c2nc(SCCC(C)C)nc(N3CCOCC3)c2C#N)cc(OC)c1OC group="criterion met"
compoundstructurestring=COc1cc(-c2nc3ccc(C)cc3[nH]2)ccc1OCC(=O)N=Nc1c(O)[nH]c2ccc(Cl)cc12 group="criterion not met"
compoundstructurestring=O=C(Nc1ccccc1)c1sc(-c2ccccc2)cc1O group="criterion met"

Please check the record `COc1cccc(Nc2ccnc3[nH]c4ccc([N+](=O)[O-])cc4c23)c1` and state if its growth is at or above 10%.
criterion met

====

Tested on: HT29 colon
Assay: NCI-60 one-dose screen, 48 h
Details: 10 µM unless noted
About 83,000 compounds went through this panel and 20% of them were active in at least one assay; those are over-represented in the sample as a whole. Activity calls are given as the source filed them. Rule for the calls: active = growth percent below 10; inactive = the rest.
Log the outcome using a class from t = active, f = inactive

Reference set, count: 3
compound=C=C(CN1CC=CCC1)[C@@H]1CC[C@]2(CO)CC[C@]3(C)[C@H](CC[C@@H]4[C@@]5(C)CC[C@H](O)C(C)(C)[C@@H]5CC[C@]43C)[C@@H]12 experimentaltarget="HT29 colon" group=f
compound=CCOC(=O)c1c(NC(=O)CSc2n[nH]c3nc4ccccc4n23)sc(CC)c1C experimentaltarget="HT29 colon" group=f
compound="COc1ccc(C2=CN3CC=CCC3CC2=O)cc1 (centres undefined)" experimentaltarget="HT29 colon" group=f

Field: outcome | Entry: `CC1=C(C(=O)n2c3ccccc3c3ccccc32)C(c2cccc([N+](=O)[O-])c2)C(C(=O)n2c3ccccc3c3ccccc32)=C(C)N1`
f

Field: outcome | Entry: `CCCCCCC(=O)Nc1ncc(Cc2ccc(C)cc2)s1`
f

Field: outcome | Entry: `COc1cc(C(=O)/C=C/c2ccc(N3CCN(C)CC3)cc2)cc(OC)c1OC`
f

Field: outcome | Entry: `COc1ccc2nc3ccccc3c(NCc3ccccc3)c2c1`
t

Field: outcome | Entry: `Cc1nc2ccccc2c(/C=C/c2ccc(C(F)(F)F)cc2)c1C(=O)/C=C/c1ccccc1`
t

Field: outcome | Entry: `COc1ccccc1-n1c(-c2cc(O)ccc2C)cn2c3c(=O)[nH]c(=O)n(C)c3nc12`
f
